Read-out: CD40, CD40 (gene 958)
Experiment: BSK_SAg_CD40: BioMAP Diversity Plus: SAg Assay for CD40 Biomarker Activity (AID 2283088)
Settings: primary human HUVEC with PBMC; actives raise or lower the signal
Experimental: BSK_SAg is a cell-based, multiplexed-readout assay that uses umbilical vein endothelium and peripheral blood mononuclear cells, a human vascular primary cell co-culture, with measurements taken at 24 hours after chemical dosing in a 96-well plate.BSK_SAg_CD40 is one of 10 assay component(s) measured or calculated from the BSK_SAg assay. […] This assay endpoint, BSK_SAg_CD40, was analyzed with bidirectional fitting relative to DMSO as the negative control and baseline of activity. […]
The source made the active and inactive calls. Rule for the calls: active = hit-call score of the fitted dose curve at least 0.9, where 1 is the maximum; inactive = score below 0.9.
Assign a class; possible classes are true for active, false for inactive

These recorded examples may help you get a feel for the data.
molecule	group
O=C(O)c1cccc(N(Cc2cccnc2)c2ccc(OC(F)F)c(OC(F)F)c2)c1	true
Cc1ccc(O)cc1	false
CC(C)=CCCC(C)=CC=O	false
CC1=CC(=O)CC(C)(C)C1	false
CC1(C)C(=O)N(Br)C(=O)N1Br	false
Cc1ccc(S(=O)(=O)O)cc1C	false
O=C(O)CCN(C1(C(=O)NO)CCCC1)S(=O)(=O)c1ccc(Oc2ccc(F)cc2)cc1	false
CCOCCOCCOCCO	false
CC(C)=CCC/C(C)=C\CO	false
CC(O)CN(CCN(CC(C)O)CC(C)O)CC(C)O (stereo not drawn)	false

For CNS(=O)(=O)c1cc(C(=O)N2CCC(CCN3C4CCC3CC(n3c(C)nc5ccccc53)C4)(c3cccc(F)c3)CC2)c(Cl)cc1F (stereo not drawn) , what call appears in the results of this test? true

What would you report for Cc1c(-c2cccnc2)c2ccccc2n1CCCCC(=O)O ? false

What would you report for CN(C)c1ccc(N=NS(=O)(=O)O)cc1 ? false

What would you report for CC(=O)c1ccc2c(c1)[C@H](NC(=O)c1ccc(F)cc1)[C@@H](O)C(C)(C)O2 ? false

What would you report for CCOC(=O)COc1ccc2c(c1)CC(NCC(O)c1cccc(Cl)c1)CC2 (stereo not drawn) ? true

What would you report for CCOC(=O)CC(CC(=O)OCC)(OC(C)=O)C(=O)OCC ? false

What would you report for CCCCCCCCO ? false

----------
Molecular target: Nucleoli Translocation, AR (gene 367) (UniProt P10275)
Sequence (P10275 whole entry, looked up): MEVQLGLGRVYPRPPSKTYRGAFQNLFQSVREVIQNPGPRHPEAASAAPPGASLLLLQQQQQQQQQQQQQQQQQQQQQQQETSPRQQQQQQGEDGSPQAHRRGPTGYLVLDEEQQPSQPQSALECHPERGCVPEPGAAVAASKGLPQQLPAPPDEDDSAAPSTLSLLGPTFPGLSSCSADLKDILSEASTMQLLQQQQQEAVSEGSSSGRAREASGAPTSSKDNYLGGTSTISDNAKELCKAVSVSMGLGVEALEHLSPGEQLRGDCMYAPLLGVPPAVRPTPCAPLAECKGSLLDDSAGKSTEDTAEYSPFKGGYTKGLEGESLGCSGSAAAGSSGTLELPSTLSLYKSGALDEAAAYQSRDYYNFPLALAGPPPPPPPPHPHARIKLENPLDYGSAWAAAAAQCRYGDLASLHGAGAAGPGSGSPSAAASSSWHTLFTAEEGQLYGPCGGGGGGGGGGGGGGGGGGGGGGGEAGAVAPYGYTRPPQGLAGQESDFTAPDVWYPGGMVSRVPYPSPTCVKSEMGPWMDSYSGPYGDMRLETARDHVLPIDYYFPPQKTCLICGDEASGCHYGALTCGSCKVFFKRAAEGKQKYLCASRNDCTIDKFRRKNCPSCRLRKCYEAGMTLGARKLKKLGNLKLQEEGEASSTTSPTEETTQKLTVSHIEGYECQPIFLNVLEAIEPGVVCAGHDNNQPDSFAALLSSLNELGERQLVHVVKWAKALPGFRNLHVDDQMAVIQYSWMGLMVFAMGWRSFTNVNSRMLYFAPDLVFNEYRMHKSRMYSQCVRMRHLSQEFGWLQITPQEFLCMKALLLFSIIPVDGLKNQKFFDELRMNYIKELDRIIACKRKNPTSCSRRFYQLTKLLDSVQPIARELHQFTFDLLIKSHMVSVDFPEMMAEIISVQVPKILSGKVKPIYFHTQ
Experiment: UPITT_HCI_U2OS_AR_TIF2_Nucleoli_Antagonist: University of Pittsburgh U2OS Androgen Receptor-Transcriptional Intermediary Factor 2 (AR-TIF2) Antagonism High Content Imaging Assay for Nucleoli Translocation (AID 2283997)
Inconclusive results are not listed. The source made the active and inactive calls. The calls were made as follows: active = hit-call score of the fitted dose curve at least 0.9, where 1 is the maximum; inconclusive = response in the unintended direction; inactive = score below 0.9.
Assign a class; possible classes are active, inactive

These recorded examples may help you get a feel for the data.
compound	group
CCOc1cccc(-n2cc(C(=O)N3CCN(c4cc(C(=O)O)c5ccccc5c4)CC3)nc2-c2ccc(C)cc2)c1	active
CNS(=O)(=O)c1cc(C(=O)N2CCC(CCN3C4CCC3CC(n3c(C)nc5ccccc53)C4)(c3cccc(F)c3)CC2)c(Cl)cc1F (configuration not stated)	inactive
CN(C)c1ccc(N=NS(=O)(=O)O)cc1	inactive

For CCNc1ccccc1 , what call appears in the results of this test? inactive

What would you report for Fc1ccccc1[C@@H](F)COC1CCC(Nc2ncnc3[nH]ncc23)CC1 (some centres not stated) ? active

What would you report for Cc1ccc(N)cc1O ? active

What would you report for O=C(O)c1cccc(N(Cc2cccnc2)c2ccc(OC(F)F)c(OC(F)F)c2)c1 ? active
